- measured on: UniProtKB Q96T53
- Sequence (Q96T53 whole entry): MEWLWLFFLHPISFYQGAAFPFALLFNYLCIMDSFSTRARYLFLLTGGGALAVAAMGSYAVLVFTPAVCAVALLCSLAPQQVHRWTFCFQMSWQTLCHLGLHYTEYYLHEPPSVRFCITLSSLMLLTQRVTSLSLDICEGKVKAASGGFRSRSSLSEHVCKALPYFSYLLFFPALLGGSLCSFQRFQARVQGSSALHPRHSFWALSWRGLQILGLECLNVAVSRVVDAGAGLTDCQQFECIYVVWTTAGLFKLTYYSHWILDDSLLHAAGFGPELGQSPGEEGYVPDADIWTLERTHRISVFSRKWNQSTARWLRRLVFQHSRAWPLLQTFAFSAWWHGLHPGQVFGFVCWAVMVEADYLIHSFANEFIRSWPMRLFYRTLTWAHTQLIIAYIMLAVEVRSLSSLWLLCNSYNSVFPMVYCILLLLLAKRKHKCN
- protocol description: Determination of hGOAT activity in HEK293 cells after incubation with test compound (acyl-ghrelin ELISA)
- measurement parameters: HEK293 cells stably transfected with preproghrelin and human GOAT; octanoate-BSA 100 μM; 5 hours incubation; acyl-ghrelin in medium by ELISA; 8 compound concentrations
pIC50: −log10 of the molar value.
assay metric: pIC50

Solved entries (count: 2):
compound | readout value
COC(=O)c1cn2cc(Cc3c(C)nc4nonc4c3N)ccc2n1 | 8.11
Cc1nc2nonc2c(N)c1Cc1ccc(Cl)c(C(=O)N(C)C)c1 | 9.32

I: Cc1nc2nonc2c(N)c1Cc1ccc(Br)nc1
II: COc1cc(Cc2c(Cl)nc3nonc3c2N)ccc1C(F)(F)F
III: Cc1nc2nonc2c(N)c1Cc1ccc(-c2ccnn2C)n2cnnc12
IV: Cc1nc2nonc2c(N)c1Cc1ccc(C(=O)NC(C)CO)cc1 (stereo not drawn)
Task: Please produce an ascending ranking of these compounds based on pIC50. Answer format: the labels, ordered as requested.
Result: IV, III, I, II
